# Growth Inhibited Area M45 listing for each entry below
- Tested on: Bacillus subtilis M45
- METHOD NOTES: Mutagenicity Rec-assay, recombination repair deficient strain
- STUDY CONDITIONS: 500 µg/disk, 16 hours at 37°C
Unit mm implied. Number only.

Reference set, count: 2
{"COMPOUND": "O=C([O-])c1ccccc1NC1O[C@H](CO)[C@H](O)[C@H](O)[C@H]1O.[Na+] (stereo partly drawn) [Compound 16, o-Aminobenzoic acid-N-D-galactoside]", "ASSAYED TARGET": "Bacillus subtilis M45", "ASSAY READOUT": "Growth Inhibited Area M45", "QUANTITATIVE RESULT": 0}
{"COMPOUND": "O=C(O)c1ccc(NC2O[C@H](CO)[C@@H](O)[C@H](O)[C@@H]2O)cc1 (stereo partly drawn) [Compound 22, p-Aminobenzoic acid-N-D-mannoside]", "ASSAYED TARGET": "Bacillus subtilis M45", "ASSAY READOUT": "Growth Inhibited Area M45", "QUANTITATIVE RESULT": 0}

Input line: Find the measured Growth Inhibited Area M45 of O=C(O)c1ccc(NC2OC[C@H](O)[C@H](O)[C@H]2O)cc1 (stereo partly drawn) [Compound 2, p-Aminobenzoic acid-N-L-arabinoside] and report it.
Output line: 0

* * *

- Tested on: Wistar male rats
- METHOD NOTES: Saccharide tolerance test (pancreas function) of rats given CsA with the present substance
- Type: in vivo
- STUDY CONDITIONS: CsA 25 mg/kg/day i.p. 3 weeks plus present substance 300 mg/kg/day orally
# Insuline Value 10 Min.After The Test listing for each entry below
Unit mµ/ml implied. Number only.

{"COMPOUND": "O=C(O)c1ccc(NC2OC[C@H](O)[C@H](O)[C@H]2O)cc1 (stereo partly drawn) [Compound 2, p-Aminobenzoic acid-N-L-arabinoside]", "UNIT SPEC": "mµ/ml", "Insuline Value 10 Min.After The Test": 6.12}
{"COMPOUND": "O=C(O)c1ccc(NC2O[C@H](CO)[C@@H](O)[C@H](O)[C@H]2O)cc1 (stereo partly drawn) [Compound 10, p-Aminobenzoic acid-N-D-glucoside]", "UNIT SPEC": "mµ/ml", "Insuline Value 10 Min.After The Test": 6.02}
{"COMPOUND": "O=C(O)c1ccc(NC2O[C@H](CO)[C@H](O)[C@H](O)[C@H]2O)cc1 (stereo partly drawn) [Compound 14, p-Aminobenzoic acid-N-D-galactoside]", "UNIT SPEC": "mµ/ml", "Insuline Value 10 Min.After The Test": 6.10}
{"COMPOUND": "O=C(O)c1ccc(NC2O[C@H](CO)[C@@H](O)[C@H](O)[C@@H]2O)cc1 (stereo partly drawn) [Compound 22, p-Aminobenzoic acid-N-D-mannoside]", "UNIT SPEC": "mµ/ml", "Insuline Value 10 Min.After The Test": 6.50}
{"COMPOUND": "O=C([O-])c1ccccc1NC1OCC(O)C(O)C1O.[Na+] [Compound 4, o-Aminobenzoic acid-N-L-arabinoside]", "UNIT SPEC": "mµ/ml", "Insuline Value 10 Min.After The Test": 6.22}
{"COMPOUND": "O=C([O-])c1ccccc1NC1O[C@H](CO)[C@@H](O)[C@H](O)[C@H]1O.[Na+] (stereo partly drawn) [Compound 12, o-Aminobenzoic acid-N-D-glucoside]", "UNIT SPEC": "mµ/ml", "Insuline Value 10 Min.After The Test": 6.12}
{"COMPOUND": "O=C(O)c1ccc(NC2OC[C@@H](O)[C@H](O)[C@H]2O)cc1 (stereo partly drawn) [Compound 6, p-Aminobenzoic acid-N-D-xyloside]", "UNIT SPEC": "mµ/ml", "Insuline Value 10 Min.After The Test": 6.20}
{"COMPOUND": "C[C@@H]1OC(Nc2ccc(C(=O)O)cc2)[C@H](O)[C@H](O)[C@H]1O (stereo partly drawn) [Compound 18, p-Aminobenzoic acid-N-L-rhamnoside]", "UNIT SPEC": "mµ/ml", "Insuline Value 10 Min.After The Test": 6.44}

Input line: Find the measured Insuline Value 10 Min.After The Test of CC1OC(Nc2ccccc2C(=O)[O-])C(O)C(O)C1O.[Na+] [Compound 20, o-Aminobenzoic acid-N-L-rhamnoside] and report it.
Output line: 6.38
